growth overview
# Tested on: SK-OV-3 ovarian
# assayRemarks: NCI-60 one-dose screen, 48 h (100 = growth as untreated, 0 = no growth, -100 = all killed)
# assaySetup: 10 µM
About 83,000 compounds went through this panel and 20% of them were active in at least one assay; those are over-represented in the sample as a whole.
endpointLabel: growth (%)

compound | unit | reportedMeasurement
C[C@@H](Oc1cc(-c2cnn(C3CC4(CCNCC4)C3)c2)cnc1N)c1c(F)ccc(Cl)c1Cl | % | 62.6
CCOC(=O)c1sc(NC(=O)CN2CCC(Cc3ccccc3)CC2)nc1C | % | 102
COc1cc(C(=O)/C=C/c2c(-c3cccs3)nc3sccn23)cc(OC)c1OC | % | -2.52
COc1ccc(-c2c(-c3cc4c(c(OC)c3OC)OCO4)noc2N)cc1 | % | 16.2
O=C1NC(=O)C(CSc2ccccc2)(c2ccccc2)N1 (configuration not stated) | % | 101
Cc1cc(=O)c2c(C)ccc(C)c2[nH]1 | % | 107
CCCCC(=O)N/N=C/c1cc(I)cc(I)c1O | % | 58.6
Oc1ccc(Cl)cc1CNc1nc2ccccc2[nH]1 | % | 87.1
O=C1C(Cl)=C(NCCCN2CCOCC2)C(=O)c2ccccc21 | % | 102
COc1cccc(-c2ccc3c(c2)C2CCN(Cc4ccccc4)C3C2)c1 (configuration not stated) | % | 71.1
CCSc1nnc2c3cc(Br)ccc3n(C)c2n1 | % | 105
COc1cc(/C=C2\C(=O)Nc3ccccc32)cc(OC)c1O | % | 93.5
Cc1ccc(S(=O)(=O)N(c2ccc(Cl)cc2)c2ccc(Br)cc2C(=O)O)cc1 | % | 112
CCOC(=O)c1c(Cl)c2c(n1Cc1cc(OC)cc(OC)c1)-c1oncc1CCC2 | % | 27.5
COc1cc(CNCCN2C(=O)c3ccc4c5c(ccc(c35)C2=O)C(=O)N(CCNCc2cc(OC)c(OC)c(OC)c2)C4=O)cc(OC)c1OC | % | -96.9
O=C1N/C(=C\c2ccccc2)c2ncccc21 | % | 89.9
NC(=O)c1cc(I)ccc1NC(=O)COc1ccc(Cl)cc1Cl | % | 90.5
Cc1nc(NC(=O)COc2cccc(/C=C3\COc4ccccc4C3=O)c2)sc1C | % | 92.2
COc1ccc(-c2csc3c2-n2cccc2C3=O)cc1O | % | 1.75
O=[N+]([O-])c1ccc2nc(N/N=C/c3ccc(O)cc3)sc2c1 | % | 82.4
Cc1nc(-c2ccccc2)cc2c(O)c(C(=O)N/N=C/Cc3ccccc3)[nH]c(=O)c12 | % | 108
O=C(N/N=C/c1ccc(F)cc1)c1[nH]c2ccc(I)cc2c1-c1ccccc1 | % | -1.53
OC[C@@H](O)[C@@H](O)CO | % | 116
C=C1CC[C@@H]2[C@@](C)(CCC[C@]2(C)C(=O)O)[C@@H]1CC[C@H](CO)CCO | % | 102
COc1ccc(C2OCC(C)(C)CO2)cc1OC | % | 107
Cc1cc(O)cc2c1[C@H]1CC[C@]3(C)[C@@H](O)CC[C@H]3[C@@H]1C=C2 | % | 115
Cc1ccc(S(=O)(=O)N2C/C(=C\c3cc(F)cc(F)c3)C(=O)/C(=C/c3cc(F)cc(F)c3)C2)cc1 | % | 14.9
COc1cc(C2C3=C(COC3=O)N(CCO)c3cc4c(cc32)OCO4)cc(OC)c1O (configuration not stated) | % | 31.8
CON=C1C[C@]2(C[C@@H]3C[C@@H](C/C=C(\C)C[C@@H](C)/C=C/C=C4\CO[C@@H]5[C@H](O)C(C)=C[C@@H](C(=O)O3)[C@]45O)O2)O[C@H](/C(C)=C/C(C)C)[C@H]1C | % | 95.2
N#Cc1c(O)c2c(c(O)c1C#N)C(=O)c1ccccc1C2=O | % | 109
COc1ccccc1CNCCCCCCCCCCCCN1C(=O)c2ccc3c4c(ccc(c24)C1=O)C(=O)N(CCCCCCCCCCCCNCc1ccccc1OC)C3=O | % | 117
O=c1nc(NO)[nH]c(=O)n1Cc1ccccc1 | % | 99.3
Cc1nc2cc(Nc3nc(NCCO)nc(Nc4ccc(F)cc4)n3)ccc2n1Cc1ccccc1 | % | 105
CC(=O)N(CC(O)CO)c1c(I)c(C(=O)NCCO)c(I)c(C(=O)NCC(O)CO)c1I (configuration not stated) | % | 103
C[C@@H](Oc1cc(-c2cnn(C3CC4(CCCNC4)C3)c2)cnc1N)c1c(Cl)ccc(F)c1Cl (some centres not stated) | % | 78
FCOC(C(F)(F)F)C(F)(F)F | % | 98
Cc1cc(=O)oc2c1ccc1oc(C(=O)c3ccccc3)c(C)c12 | % | 109
O=C(O)C[C@H](O)C[C@H](O)/C=C/c1c(C2CC2)nc2ccccc2c1-c1ccc(F)cc1 | % | 93.7
c1ccc(-c2nc(N3CCOCC3)c3c4c(sc3n2)CCCCCC4)nc1 | % | 65.7
CN1CCN(C)c2cncc(Br)c2C1=O | % | 101
CCN(CC)CCCNc1ccc(C)c2sc3ccccc3c(=O)c12 | % | 56.2
N#CC1=C(N)Oc2cc(N)ccc2C1c1ccc(F)cc1 (configuration not stated) | % | 85.2
